- Tested Target: human CD33 E33A (human, UniProt P20138 18-364)
- Sequence (P20138 18-364 E33A limits assumed): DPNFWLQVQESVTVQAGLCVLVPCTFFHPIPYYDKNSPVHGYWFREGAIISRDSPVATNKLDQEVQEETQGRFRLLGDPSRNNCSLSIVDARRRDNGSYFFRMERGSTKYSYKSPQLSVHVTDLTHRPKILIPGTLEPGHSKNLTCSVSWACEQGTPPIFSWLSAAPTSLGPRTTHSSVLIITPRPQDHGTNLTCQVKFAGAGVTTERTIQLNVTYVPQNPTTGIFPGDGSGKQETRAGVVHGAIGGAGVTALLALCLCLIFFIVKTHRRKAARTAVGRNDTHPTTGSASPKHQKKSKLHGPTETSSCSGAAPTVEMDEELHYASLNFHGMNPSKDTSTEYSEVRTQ
- Assay Info: alanine scan, flow cytometry;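 also: HEK293-T cells transiently expressing single-residue alanine mutants of CD33 (alanine swapped to serine), antibody binding read by fluorescence in duplicate, background-subtracted, expressed relative to wild-type CD33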
Measurement Name: Mean % WT Binding (% WT)

binder="Refmab #3 (antibody, V domains shown, Full-length format is human IgG1 Fc silent (PG-LALA); The alanine scan used IgG or Fab) VH: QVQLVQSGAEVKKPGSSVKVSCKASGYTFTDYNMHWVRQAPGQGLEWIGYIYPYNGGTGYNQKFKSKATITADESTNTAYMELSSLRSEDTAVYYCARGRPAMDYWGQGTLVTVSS VL: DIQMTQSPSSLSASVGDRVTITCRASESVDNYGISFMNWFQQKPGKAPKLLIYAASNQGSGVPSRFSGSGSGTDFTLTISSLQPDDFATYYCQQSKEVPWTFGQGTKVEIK" unit_text="% WT" reading=94.9
binder="Refmab #1 (antibody, V domains shown, Full-length format is human IgG1 (Absolute Antibody Ab00283-10.0); The alanine scan used IgG or Fab; also called hP67.6) VH: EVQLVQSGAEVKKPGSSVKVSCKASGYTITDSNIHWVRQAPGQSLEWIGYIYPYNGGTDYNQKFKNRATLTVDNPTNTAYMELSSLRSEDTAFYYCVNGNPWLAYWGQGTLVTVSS VL: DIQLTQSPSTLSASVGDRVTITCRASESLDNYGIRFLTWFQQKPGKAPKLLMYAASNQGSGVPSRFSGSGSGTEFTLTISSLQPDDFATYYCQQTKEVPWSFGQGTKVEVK" unit_text="% WT" reading=86.4
binder="Refmab #2 (antibody, V domains shown, Full-length format is human IgG1 Fc silent (PG-LALA); The alanine scan used IgG or Fab) VH: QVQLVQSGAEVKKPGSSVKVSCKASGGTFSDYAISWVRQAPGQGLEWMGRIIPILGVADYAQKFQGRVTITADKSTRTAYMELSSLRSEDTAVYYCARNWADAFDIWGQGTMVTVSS VL: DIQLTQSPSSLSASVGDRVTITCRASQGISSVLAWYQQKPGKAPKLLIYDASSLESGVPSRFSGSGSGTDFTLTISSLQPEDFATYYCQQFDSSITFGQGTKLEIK" unit_text="% WT" reading=120
binder="Refmab #4 (antibody, V domains shown, Full-length format is human IgG1 Fc silent (PG-LALA); The alanine scan used IgG or Fab) VH: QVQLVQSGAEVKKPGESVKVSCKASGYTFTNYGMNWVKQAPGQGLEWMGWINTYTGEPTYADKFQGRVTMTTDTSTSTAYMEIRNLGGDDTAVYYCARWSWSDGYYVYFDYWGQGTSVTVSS VL: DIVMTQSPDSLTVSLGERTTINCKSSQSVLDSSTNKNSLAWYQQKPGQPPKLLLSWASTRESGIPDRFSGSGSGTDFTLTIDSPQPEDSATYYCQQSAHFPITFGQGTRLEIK" unit_text="% WT" reading=87.1
